Cited source: paper PMC10746280

test system: RAW 264.7 macrophages; assay: SAFIRE macrophage assay: host toxicity (adherent macrophage count, morphology); type: cell-based; conditions: 5 uM
Recorded 5 uM Avg Cell # Score values for a group of molecules are listed next.

molecule	target-or-system	5 uM Avg Cell # Score
NC1CCN(CC(O)COc2ccc(F)cc2)C1 (stereo not drawn)	RAW 264.7 macrophages	103
NC1CCCN(CC(O)COc2ccc(Cl)c(Cl)c2)C1 (stereo not drawn)	RAW 264.7 macrophages	99
O=C1CCCN1C1CCN(CC(O)COc2ccc(Cl)c(Cl)c2)CC1 (stereo not drawn)	RAW 264.7 macrophages	100
